Data provenance is paper PMC6270420.

Test system: Escherichia coli CCM 4517
protocol_text: Antibacterial microdilution broth method
Assay type: cell-based
setup_conditions: CCM4517, 24 h, read-out: MIC/IC90 E. coli CCM 4517
property: MIC

(Q) MIC lookup needed for O=C(Oc1ccc(Cl)cc1C(=O)Nc1cccc(F)c1)c1ccc(C(F)(F)F)cc1 [1k] , thanks.
(A) > 250 µM

(Q) Record: O=C(Oc1ccc(Cl)cc1C(=O)Nc1ccc(F)cc1)c1ccc(C(F)(F)F)cc1 [1m]
(A) > 500 µM

(Q) Record: O=C(Oc1cc(Cl)ccc1C(=O)Nc1cccc(Cl)c1)c1ccc(C(F)(F)F)cc1 [1b]
(A) > 250 µM

(Q) Record: O=C(Oc1cc(Cl)ccc1C(=O)Nc1ccc(C(F)(F)F)cc1)c1ccc(C(F)(F)F)cc1 [1p]
(A) 31.2 µM

(Q) Record: CC1(C)S[C@@H]2[C@H](NC(=O)Cc3ccccc3)C(=O)N2[C@H]1C(=O)O [PNC, benzylpenicillin, reference compound]
(A) > 500 µM

More entries:
(Q) MIC lookup needed for O=C(Oc1cc(Cl)ccc1C(=O)Nc1cccc(Br)c1)c1ccc(C(F)(F)F)cc1 [1h] , thanks.
(A) > 500 µM

(Q) Record: O=C(Oc1ccc(Cl)cc1C(=O)Nc1ccc(Cl)c(Cl)c1)c1ccc(C(F)(F)F)cc1 [1e]
(A) > 500 µM

(Q) Record: O=C(Oc1ccc(Cl)cc1C(=O)Nc1ccc(C(F)(F)F)cc1)c1ccc(C(F)(F)F)cc1 [1o]
(A) > 125 µM

(Q) Record: O=C(Oc1cc(Cl)ccc1C(=O)Nc1ccc(Br)cc1)c1ccc(C(F)(F)F)cc1 [1j]
(A) 250 µM
